# tgt: T1, human insulin-like growth factor-II (IGF-II) (human, UniProt P01344 25-91)
# T1 construct: also called IGF2; IGF-2
# assayProtocol: Biacore low-resolution screen, mAb captured, IGF-II injected
recordedEndpoint: Kd (pM)
Kindly answer with a numeric value in pM, unit omitted.

Worked examples follow.
[
  {
    "binder": "mAb 7.34.1 (antibody, V domains shown, Fully human XenoMouse hybridoma mAb, lambda light chain (V1-13/JL2); also called ATCC PTA-7423) VH: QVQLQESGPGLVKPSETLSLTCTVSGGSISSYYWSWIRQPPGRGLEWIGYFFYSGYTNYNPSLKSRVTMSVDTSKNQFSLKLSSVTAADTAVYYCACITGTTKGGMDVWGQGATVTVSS VL: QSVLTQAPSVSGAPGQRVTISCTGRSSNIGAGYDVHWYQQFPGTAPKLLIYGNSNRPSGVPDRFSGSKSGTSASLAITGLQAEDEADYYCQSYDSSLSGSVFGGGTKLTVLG",
    "unitString": "pM",
    "Kd": 60
  },
  {
    "binder": "mAb 7.234.2 (antibody, V domains shown, Kappa light chain (L5/JK3); also called 7.234.1; 7_234_1) VH: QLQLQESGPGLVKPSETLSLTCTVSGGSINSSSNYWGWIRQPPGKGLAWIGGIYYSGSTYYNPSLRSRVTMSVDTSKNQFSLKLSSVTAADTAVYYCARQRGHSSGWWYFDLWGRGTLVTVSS VL: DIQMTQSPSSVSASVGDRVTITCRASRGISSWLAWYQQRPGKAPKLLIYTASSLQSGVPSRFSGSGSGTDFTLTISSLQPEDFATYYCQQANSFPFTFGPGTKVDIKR",
    "unitString": "pM",
    "Kd": 45.3
  }
]

GET /values?readout=Kd&item= mAb 7.158.2 (antibody, V domains shown, Kappa light chain (L5/JK3); also called 7.158.1; 7_158_1) VH: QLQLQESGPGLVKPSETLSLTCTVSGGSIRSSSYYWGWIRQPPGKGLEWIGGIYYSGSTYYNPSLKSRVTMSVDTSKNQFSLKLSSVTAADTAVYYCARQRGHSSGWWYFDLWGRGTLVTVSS VL: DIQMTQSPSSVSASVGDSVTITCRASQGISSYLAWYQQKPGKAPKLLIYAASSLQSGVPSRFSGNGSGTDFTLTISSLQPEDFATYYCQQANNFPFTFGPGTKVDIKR
197
